Tested on: Sodium/Iodide Symporter (NIS), SLC5A5 (gene 6528)
TEST: CPHEA_Stoker_NIS_Inhibition_RAIU: CPHEA's Radioactive Iodide Uptake (RAIU) Assay for Sodium/Iodide Symporter (NIS) Inhibition, Stoker and Laws Labs (AID 2283841)
Results filed as inconclusive are left out. Active and inactive are the calls of the source. Rule for the calls: active = hit-call score of the fitted dose curve at least 0.9, where 1 is the maximum; inconclusive = response in the unintended direction; inactive = score below 0.9.
Log the outcome using a class from true for active, false for inactive

| STRUCTURE AS SMILES | ASSIGNED CLASS |
| --- | --- |
| [O-]n1ccccc1=S.[O-]n1ccccc1=S.[Zn+2] | true |
| OCC#CCO | false |
| C=C1CC[C@H](O)C/C1=C/C=C1\CCC[C@]2(C)[C@@H]([C@H](C)/C=C/[C@H](C)C(C)C)CC[C@@H]12 | false |

Assay outcome for CCOC(=O)[C@@H](C)Oc1ccc(Oc2nc3ccc(Cl)cc3o2)cc1 : what was it?
false

Assay outcome for CCc1cc(Cc2cc(CC)cc(C(C)(C)C)c2O)c(O)c(C(C)(C)C)c1 : what was it?
false

Assay outcome for O=C(CC(=O)c1ccccc1)c1ccccc1 : what was it?
false

Assay outcome for Cc1ccc(S(=O)(=O)Oc2ccc(N=Nc3ccc(-c4ccc(N=Nc5c(O)ccc6cc(S(=O)(=O)O)cc(S(=O)(=O)O)c56)c(C)c4)cc3C)cc2)cc1 : what was it?
false

---

Read-out: TIMP metallopeptidase inhibitor 1 (TIMP1), TIMP1 (gene 7076)
TEST: BSK_MyoF_TIMP1: BioMAP Diversity Plus: MyoF Assay for TIMP metallopeptidase inhibitor 1 (TIMP1) Biomarker Activity (AID 2284269)
DETAILS: primary human lung fibroblasts
Active and inactive are the calls of the source. How the source made its calls: active means hit-call score of the fitted dose curve at least 0.9, where 1 is the maximum; inactive means score below 0.9.
Log the outcome using a class from active, inactive

Example entries begin here.
| COMPOUND | ASSIGNED CLASS |
| --- | --- |
| Oc1c(Cl)cc(Cl)c(Cl)c1Cc1c(O)c(Cl)cc(Cl)c1Cl | active |
| COc1ccc(CCN2CCC(Nc3nc4ccccc4n3Cc3ccc(F)cc3)CC2)cc1 | inactive |
| C1=CC2C3C=CC(C3)C2C1 (stereo unspecified) | inactive |
| IC(I)I | inactive |

Assay outcome for CC(C)(N=C=O)c1cccc(C(C)(C)N=C=O)c1 : what was it?
inactive

Assay outcome for CCCCOC(=O)CCCCCCCC(=O)OCCCC : what was it?
inactive

Assay outcome for CCN(CC)C(=O)N(CC)CC : what was it?
inactive

Assay outcome for c1ccc(CCc2ccccc2)cc1 : what was it?
active

Assay outcome for Clc1cc(Cl)c(-c2c(Cl)c(Cl)cc(Cl)c2Cl)cc1Cl : what was it?
inactive

Assay outcome for C=C(C)[C@H]1CC=C(C)C(=O)C1 : what was it?
inactive

Assay outcome for CCCCCCCCCCCCCCCC(=O)OC/C=C(C)/C=C/C=C(C)/C=C/C1=C(C)CCCC1(C)C : what was it?
inactive

Assay outcome for COc1ccc(OC)c(N=Nc2c(O)ccc3ccccc23)c1 : what was it?
active

Assay outcome for CC(C)(C)CC(C)(C)c1ccc(OCCOCC[N+](C)(C)Cc2ccccc2)cc1 : what was it?
active

Assay outcome for O=C1c2ccccc2C(=O)c2c(O)ccc(O)c21 : what was it?
inactive

Assay outcome for CCCCCC(C=O)=Cc1ccccc1 : what was it?
inactive

Assay outcome for CC(=O)c1c(C)c([N+](=O)[O-])c(C(C)(C)C)c([N+](=O)[O-])c1C : what was it?
inactive
